Biological target: leucocytal elastase (Homo sapiens, UniProt P08246)
Sequence (P08246 30-267): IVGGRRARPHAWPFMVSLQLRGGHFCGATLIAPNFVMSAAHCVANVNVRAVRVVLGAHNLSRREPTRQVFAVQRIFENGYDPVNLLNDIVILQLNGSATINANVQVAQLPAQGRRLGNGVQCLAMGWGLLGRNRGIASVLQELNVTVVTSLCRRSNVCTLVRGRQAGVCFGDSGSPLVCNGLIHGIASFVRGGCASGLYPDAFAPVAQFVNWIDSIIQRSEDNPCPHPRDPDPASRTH
Where a SMILES comes first, the peptide text is derived from it. The star is where a group is joined. Undecanoyl = CCCCCCCCCCC(=O)*; Cbz = O=C(OCc1ccccc1)*; Butyryl = CCCC(=O)*; NHiBu = CC(C)CN*; NHPr = CCCN*
Property Name: Ki (µM)

// solved cases for Ki follow
Compound	U	Ki
CCNC(=O)[C@H](C)NC(=O)[C@H](C)NC(=O)[C@H](C)NC(=O)[C@H](CCC(=O)O)NC(=O)OCc1ccccc1 [Z--Glu--Ala--Ala--Ala--NH--Et] (Cbz-EAAA-NHEt)	µM	720
CCCC(=O)N[C@@H](CC(=O)O)C(=O)N[C@@H](C)C(=O)N[C@@H](C)C(=O)N1CCC[C@H]1C(=O)NCC(C)C [Btr--Asp--Ala--Ala--Pro--NH--iBu] (Butyryl-DAAP-NHiBu)	µM	136
CCCCCCCCCCC(=O)N[C@@H](CC(=O)O)C(=O)N[C@@H](C)C(=O)N[C@@H](C)C(=O)N1CCC[C@H]1C(=O)NCC [UDA--Asp--Ala--Ala--Pro--NH--Et] (Undecanoyl-DAAP-NHEt)	µM	12

(A) CCNC(=O)[C@H](C)NC(=O)[C@H](C)NC(=O)[C@@H]1CCCN1C(=O)[C@H](CC(=O)O)NC(C)=O [Ac--Asp--Pro--Ala--Ala--NH--Et] (Ac-DPAA-NHEt)
(B) CCCNC(=O)[C@@H]1CCCN1C(=O)[C@H](C)NC(=O)[C@H](C)NC(=O)[C@H](CCC(=O)O)NC(=O)CCC [Btr--Glu--Ala--Ala--Pro--NH--Pr] (Butyryl-EAAP-NHPr)
-- ask Please indicate which item has the smaller measured Ki: A versus B Give the label of your selection.
-- reply B

Ref: patent US4528133A
